- MEASUREMENT_TARGET: Fes (UniProt P07332)
- Sequence (P07332 whole entry, looked up): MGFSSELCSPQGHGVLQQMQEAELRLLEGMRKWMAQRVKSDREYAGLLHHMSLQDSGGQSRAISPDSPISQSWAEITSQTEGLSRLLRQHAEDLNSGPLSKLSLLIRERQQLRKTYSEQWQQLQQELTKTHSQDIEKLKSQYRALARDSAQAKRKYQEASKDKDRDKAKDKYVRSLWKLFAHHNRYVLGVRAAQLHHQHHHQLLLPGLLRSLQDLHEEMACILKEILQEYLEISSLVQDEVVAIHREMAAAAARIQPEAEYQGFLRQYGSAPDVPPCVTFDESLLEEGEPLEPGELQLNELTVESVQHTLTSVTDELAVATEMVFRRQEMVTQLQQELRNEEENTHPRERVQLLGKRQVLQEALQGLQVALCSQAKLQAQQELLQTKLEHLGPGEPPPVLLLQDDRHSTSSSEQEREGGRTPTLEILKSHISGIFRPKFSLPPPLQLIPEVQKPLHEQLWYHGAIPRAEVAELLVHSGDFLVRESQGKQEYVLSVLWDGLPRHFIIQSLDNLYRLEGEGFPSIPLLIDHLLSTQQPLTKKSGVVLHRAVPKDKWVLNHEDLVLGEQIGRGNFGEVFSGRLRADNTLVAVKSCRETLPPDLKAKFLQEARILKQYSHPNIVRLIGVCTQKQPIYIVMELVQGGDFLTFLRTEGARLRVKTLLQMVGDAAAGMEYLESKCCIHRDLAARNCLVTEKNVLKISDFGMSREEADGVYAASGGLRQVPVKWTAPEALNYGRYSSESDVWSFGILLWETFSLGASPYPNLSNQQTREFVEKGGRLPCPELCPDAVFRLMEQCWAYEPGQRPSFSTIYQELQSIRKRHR
- PROTOCOL: phosphorylation enrichment, bacterial display (enrichment ratio); higher = better substrate or ligand; peptides without Tyr show the background;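 further: 11-residue human phosphosite peptides and single-mutation variants displayed on the E. coli surface, counted by deep sequencing, each peptide's frequency after selection divided by its frequency in the unselected input library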;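 further: frequency after pTyr selection over input frequency; kinase dosed for 20-30% of maximal phosphorylation in three min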
Use 1 as the dividing line for phosphorylation enrichment, with the line itself on the satisfied side and lower values as not satisfied.

Here's what some known entries look like.
PDGREYIFVDP [PDGFRA_Y572_H570R_YF] :: satisfied
DFFDLYGGEKL [PTPN11_Y66_F71L_YF] :: satisfied
TGILLYGLASR [QARS1_Y57] :: satisfied
AKKIKYFEGVS [PRKDC_Y682] :: not satisfied
AVRVFYRKCPH [EPHB2_Y194_R199H] :: satisfied
QSLEPYTKQQL [STAT3_Y640_V637L] :: not satisfied
TTKVSYRASQP [MKI67_Y1737] :: not satisfied
SHGKQYRVPSD [HHIPL2_Y395_R394Q] :: not satisfied

Threshold query (phosphorylation enrichment >= 1) on SSTAMYSAPGR [PSMB1_Y8] not satisfied

For this sequence, is measured phosphorylation enrichment 1 or higher? MDDKEYYSVHN [MET_Y1234_Y1230D] satisfied

Is the recorded value of phosphorylation enrichment equal to or greater than 1 for this sequence? SHMVNYQPFRK [TEX37_Y25_D24N_YF] not satisfied

Answer whether phosphorylation enrichment of SGETKYNPTEA [NBEAL2_Y2748_E2747K] is greater than or equal to 1. not satisfied

Could you verify whether the entry AEEKEYHAEGG [EGFR_Y869] shows phosphorylation enrichment of no less than 1? satisfied

====

- Tested on: c-Src
- PROTOCOL: phosphorylation enrichment, bacterial display (enrichment ratio); higher = better substrate or ligand; peptides without Tyr show the background
READOUT: phosphorylation enrichment
Answers are plain numbers.

Consider the worked cases shown below.
QSLEPYTKQQL [STAT3_Y640_V637L] :: 0.309
TRSFDYMEGED [FGF7_Y58_G62E_YF] :: 0.391
METKGYQSLPE [NR3C2_Y6_H7Q] :: 0.326
NNHGNYIVHLG [ETFDH_Y172_R175H] :: 0.391
IGEVVYQWAVM [GRIN2A_Y502_R504W] :: 1.47

State recorded phosphorylation enrichment for all listed sequences.
1. TSNNPYFRDQA [RPGRIP1_Y846_A841T]
2. ERLWVYGMSSS [F8_Y1728_D1727V]
3. MSIWPYLQKID [MFSD8_Y63]
4. PLGVLYKVKVF [PTS_Y128_V124L_YF]
5. APSGNYVACGG [GNB1_Y111]
6. LRVGFYESDVM [A2M_Y708]
7. KKFFSYAWPFF [BRDT_Y291_H288Y_YF]

1: 0.721; 2: 0.556; 3: 0.323; 4: 0.311; 5: 0.301; 6: 1.33; 7: 0.497

Respectfully, I request phosphorylation enrichment for each entry included below.
1. YGCGMYSHLQG [LGR4_Y848_D844G]
2. FFRNVYHLASV [RBL1_Y796_K794N_YF]

[2.87, 0.862]

====

Record form. Attribute: phosphorylation enrichment. Fill in for each entry.
- Test system: c-Src
- PROTOCOL: phosphorylation enrichment, bacterial display (enrichment ratio); higher = better substrate or ligand; peptides without Tyr show the background
Numbers only.

Worked cases, answers included:
QDIMAYRSREV [BCL6_Y157_G159S] :: 0.513
RLLVLYPWTQR [HBB_Y36_V35L] :: 0.366
RGSQQYRALPV [TUBB8_Y281_T285P] :: 0.588
FLKDVYVDSKD [NDUFAF4_Y69] :: 0.471
FPHVISARLWR [SMAD4_Y95_Y95S] :: 0.498
SFDLDYDSVQP [MYC_Y16_N11S_YF] :: 0.924

Here are 6 sequences. What values of phosphorylation enrichment were reported for them?
1. YRIGPYQPNVP [MATR3_Y784]
2. EITSHYRHLLR [ZBTB46_Y14]
3. GHLYAYNWISI [BEST1_Y227_D228N]
4. DLDATYRPMFS [JUP_Y701_M697L_YF]
5. HFPDVYAWEQL [ALX3_Y181_R183W_YF]
6. FETSHYPASPD [CTNND2_Y1217_YF]

0.402
0.475
1.32
0.542
5.25
0.31
